# Tested on: LOC_OS01G63280-cb003;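 note: purified Escherichia coli-expressed rice kinase domain construct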
# Protocol Summary: thermal shift delta Tm vs DMSO control; higher = stronger stabilization (binding)
# Conditions: 12.5 µM; protein concentration 2 µM
Assign fulfilled to entries whose thermal shift delta Tm meets or exceeds 0.3 °C; assign not fulfilled to the rest.

Recorded results for 2 compounds are shown here.
[[record]]
compound = "CCOc1cc(N2CCC(O)CC2)ccc1Nc1ncc2c(n1)N(C)c1ccccc1C(=O)N2C"
category_label = "not fulfilled"

[[record]]
compound = "COc1nccnc1NS(=O)(=O)c1ccc(NC(=O)/C=C/c2ccc([N+](=O)[O-])s2)cc1 [Necrosulfonamide]"
category_label = "not fulfilled"


Query block: Determine whether measured thermal shift delta Tm meets or exceeds 0.3 °C for C[C@H](Nc1ncnc2[nH]cnc12)c1cc2ccc(F)cc2nc1-c1ccccn1
Result block: fulfilled

Query block: Would you kindly repeat that for COc1cc(F)c(F)c(Nc2ccc(I)cc2F)c1NS(=O)(=O)C1(C[C@H](O)CO)CC1 [Refametinib (RDEA119, Bay 86-9766)] ?
Result block: fulfilled

Query block: Input NC(=O)c1ncn([C@@H]2O[C@H](CO)[C@@H](O)[C@H]2O)c1N [AICAR (Acadesine)]
Result block: fulfilled

Query block: What about C[C@H]1[C@H](C)CC[C@]2(C(=O)O)CC[C@]3(C)C(=CC[C@@H]4[C@@]5(C)C[C@@H](O)[C@H](O)[C@@](C)(CO)[C@@H]5CC[C@]43C)[C@H]12 [Asiatic Acid] ?
Result block: not fulfilled

Query block: What about this compound? CCCCCCCCCCCCCCCCCCOP(=O)([O-])OC1CC[N+](C)(C)CC1 [Perifosine (KRX-0401)]
Result block: not fulfilled

Query block: Also need Cc1ccc(NC(=O)c2cccc(N(C)C)c2)cc1NC(=O)c1ccc(O)cc1 , thanks.
Result block: fulfilled

Query block: Please give the result for CN1CCN(c2ccc(OC(F)(F)F)c(Nc3ncc4c(n3)-c3c(c(C(N)=O)nn3CCO)CC4)c2)CC1 too.
Result block: fulfilled

Query block: Next: Cc1cc(NC(=O)c2cccc(NC(=O)/C=C/CN(C)C)c2)ccc1Nc1nccc(-c2cccnc2)n1
Result block: fulfilled

Query block: Moving on to the next compound: CC(C)(C)c1cnc(CSc2cnc(NC(=O)C3CCNCC3)s2)o1
Result block: fulfilled

Query block: And for O=c1ncn2nc(Sc3ccc(F)cc3F)ccc2c1-c1c(Cl)cccc1Cl ?
Result block: fulfilled

Query block: Follow-up entry: Cc1ncc(CO)c(CO)c1O [Pyridoxine]
Result block: not fulfilled

Query block: Same question, CCCCNc1ncc(-c2ccc(CN3CCOCC3)cn2)c(NC2CCC(O)CC2)n1 (stereo unspecified) this time
Result block: not fulfilled

Query block: Cool, now Oc1cc(CNC(=S)/C=C/c2cc(O)c(O)c(Br)c2)cc(O)c1O
Result block: fulfilled

Query block: Lookup O=C(NOC[C@H](O)CO)c1ccc(F)c(F)c1Nc1ccc(I)cc1F
Result block: fulfilled

Query block: Do the same for COc1ccc(-c2ccc3c(N4CCOCC4)nc(N4C[C@@H](C)O[C@@H](C)C4)nc3n2)cc1CO please
Result block: not fulfilled

Query block: Same question for COc1cc2nccc(Oc3ccc(NC(=O)C4(C(=O)Nc5ccc(F)cc5)CC4)cc3)c2cc1OC please.
Result block: fulfilled

Query block: How about Cc1cc(CN2CCN(c3c(Br)cnc4nc(-c5ccc(N6CCN(C)CC6)cc5)[nH]c34)CC2)no1 ?
Result block: not fulfilled

Query block: What about this compound? CCn1nc(C2CCN(C(=O)CCO)CC2)nc1-c1cnc(N)c(-c2nnc(C(C)(C)C)o2)n1
Result block: fulfilled

Query block: Follow-up item: O=C1NC(=O)/C(=C/c2ccc(-c3ccc(F)cc3O)o2)S1
Result block: fulfilled

Query block: Can you handle CCn1c2ccccc2c2cc(Nc3ccnc(NCCCN4CCOCC4)n3)ccc21 next?
Result block: not fulfilled

Query block: Same read-out for Oc1c2ccccc2c2c3c(cccc13)N=N2 ?
Result block: fulfilled

Query block: Continue with CC1=C(C(=O)Nc2cc3cn[nH]c3cc2F)C(c2ccc(C(F)(F)F)cc2)CC(=O)N1 (stereo unspecified)
Result block: fulfilled

Query block: Cc1ccc(NC(=O)c2cccc(C(C)(C)C#N)c2)cc1Nc1ccc2ncn(C)c(=O)c2c1 ?
Result block: fulfilled

Query block: Another compound to check: O=C1CCc2c(Oc3ccc4c(c3)[C@@H]3[C@H](O4)[C@H]3c3nc4cc(C(F)(F)F)ccc4[nH]3)ccnc2N1 [Lifirafenib (BGB-283)]
Result block: fulfilled
